# TGT: HPK1 (Homo sapiens, UniProt Q92918)
# Construct: A HiBiT tag was introduced by CRISPR on the N terminus of HPK1 in Jurkat cells; host or cells: Jurkat cells (ATCC TIB-152), monoclonal line with CRISPR knock-in of HiBiT at the endogenous HPK1 locus
# Sequence (Q92918 whole entry): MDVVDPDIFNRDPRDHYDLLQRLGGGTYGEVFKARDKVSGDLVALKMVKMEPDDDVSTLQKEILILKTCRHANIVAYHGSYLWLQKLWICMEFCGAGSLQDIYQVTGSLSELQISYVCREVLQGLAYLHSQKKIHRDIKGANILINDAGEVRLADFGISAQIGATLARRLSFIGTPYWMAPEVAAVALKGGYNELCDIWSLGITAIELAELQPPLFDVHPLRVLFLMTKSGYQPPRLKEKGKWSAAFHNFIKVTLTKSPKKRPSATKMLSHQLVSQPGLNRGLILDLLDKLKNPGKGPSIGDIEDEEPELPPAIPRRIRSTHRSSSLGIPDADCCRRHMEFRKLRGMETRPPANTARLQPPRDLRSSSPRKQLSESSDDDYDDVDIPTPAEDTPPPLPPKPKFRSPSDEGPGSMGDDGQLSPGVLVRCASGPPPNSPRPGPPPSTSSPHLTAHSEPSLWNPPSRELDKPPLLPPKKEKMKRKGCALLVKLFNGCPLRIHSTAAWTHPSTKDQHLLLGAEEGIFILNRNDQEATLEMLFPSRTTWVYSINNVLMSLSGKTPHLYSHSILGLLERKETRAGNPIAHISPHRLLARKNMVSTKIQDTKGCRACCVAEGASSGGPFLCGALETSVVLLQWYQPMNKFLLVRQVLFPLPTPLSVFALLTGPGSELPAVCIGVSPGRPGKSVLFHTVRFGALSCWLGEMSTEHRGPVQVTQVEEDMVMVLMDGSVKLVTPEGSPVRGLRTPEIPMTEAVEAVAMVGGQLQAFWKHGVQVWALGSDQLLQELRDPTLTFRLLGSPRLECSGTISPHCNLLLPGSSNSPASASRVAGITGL
# EXPERIMENTAL PROTOCOL: HPK1 Cellular HiBit Degradation Assay
# Assay type: cell-based
# CONDITION SUMMARY: Jurkat, HiBiT HPK1 Jurkat cells, 24 hrs; maximum degradation vs DMSO vehicle control; read-out: Dmax Category
MEASURED ENDPOINT: Dmax

Example cases with answers are listed next.
[[record]]
compound = "CC(C)n1cnc2cc(-c3ccc4c(c3)N([C@H]3C[C@@H](N5CCCCC5)C3)C(=O)C43CCN(C(=O)C4(C)CCN(C(=O)[C@H]5CC[C@H](Oc6ccc(N7CCC(=O)NC7=O)cn6)CC5)CC4)CC3)nc(Nc3ccncc3F)c21"
value_reported = "50 to 70%"

[[record]]
compound = "CC(C)n1cnc2cc(-c3ccc4c(c3)N([C@H]3C[C@@H](N5CCCCC5)C3)C(=O)C43CCN(C(=O)[C@@H]4CCN(C(=O)[C@H]5CC[C@H](Nc6cccc7c6C(=O)N(C6CCC(=O)NC6=O)C7=O)CC5)C4)CC3)nc(NC3CC3)c21 (mixture of isomers)"
value_reported = "70 to 85%"

[[record]]
compound = "CC(C)n1cnc2cc(-c3ccc4c(c3)N([C@H]3C[C@@H](N5CCCCC5)C3)C(=O)C43CCN(C(=O)C4(C)CCN(C(=O)C5CCN(c6ccc(N7CCC(=O)NC7=O)cn6)CC5(F)F)CC4)CC3)nc(NC3CC3)c21 (some centres unmarked)"
value_reported = "70 to 85%"

[[record]]
compound = "CC(C)n1cnc2cc(-c3ccc4c(c3)N([C@H]3C[C@@H](N5CCCCC5)C3)C(=O)C43CCN(C(=O)C4CCN(C(=O)C5CCN(c6ccc(N7CCC(=O)NC7=O)cn6)CC5)CC4)CC3)nc(Nc3ccccc3F)c21"
value_reported = "70 to 85%"

[[record]]
compound = "CC(C)n1cnc2cc(-c3ccc4c(c3)N([C@H]3C[C@@H](N5CCCCC5)C3)C(=O)C43CCN(C(=O)C4(C#N)CCN(C(=O)C5CCN(c6ccc(C7CCC(=O)NC7=O)cc6)CC5)CC4)CC3)nc(NC3CC3)c21 (mixture of isomers)"
value_reported = "70 to 85%"


Provide value of Dmax for this record tested with HPK1 (Homo sapiens, UniProt Q92918): CC(C)n1cnc2cc(-c3ccc4c(c3)N([C@H]3C[C@@H](N5C6CCC5COC6)C3)C(=O)C43CCN(C(=O)C4(C)CCN(C(=O)CC5CCN(c6ccc(C7CCC(=O)NC7=O)cc6)CC5)CC4)CC3)nc(NC3CC3)c21 (mixture of isomers)
50 to 70%

Request - read-out Dmax | tested on HPK1 (Homo sapiens, UniProt Q92918) | compound CC(C)n1cnc2cc(-c3ccc4c(c3)N([C@H]3C[C@@H](N5CCCCC5)C3)C(=O)C43CCN(C(=O)C4(C)CCN(C(=O)[C@H]5CC[C@H](Nc6ccc(C7CCC(=O)NC7=O)cc6)CC5)CC4)CC3)nc(NC3CC3)c21 (mixture of isomers)
70 to 85%

What reported Dmax corresponds to CC(C)n1cnc2cc(-c3ccc4c(c3)N([C@H]3C[C@@H](N5CCCCC5)C3)C(=O)C43CCN(C(=O)C4(C)CCN(C(=O)C5CCN(c6ccc(C7CCC(=O)NC7=O)cn6)CC5)CC4)CC3)nc(NC3CCOCC3)c21 (mixture of isomers) on HPK1 (Homo sapiens, UniProt Q92918)?
70 to 85%

----------
# TGT: HPK1 (Homo sapiens, UniProt Q92918)
# Construct: A HiBiT tag was introduced by CRISPR on the N terminus of HPK1 in Jurkat cells; host or cells: Jurkat cells (ATCC TIB-152), monoclonal line with CRISPR knock-in of HiBiT at the endogenous HPK1 locus
# EXPERIMENTAL PROTOCOL: HPK1 Cellular HiBit Degradation Assay
# Format: cell-based
# CONDITION SUMMARY: Jurkat, HiBiT HPK1 Jurkat cells, 24 hrs; maximum degradation vs DMSO vehicle control; read-out: Dmax Category
MEASURED ENDPOINT: Dmax

[[record]]
compound = "CC(C)n1cnc2cc(-c3ccc4c(c3)N([C@H]3C[C@@H](N5CCCCC5)C3)C(=O)C43CCN(C(=O)[C@H]4CN(C(=O)C5CCN(c6ccc(C7CCC(=O)NC7=O)cn6)CC5)C[C@H]4C)CC3)nc(NC3CC3)c21 (mixture of isomers)"
value_reported = "> 85%"

[[record]]
compound = "CC(C)n1cnc2cc(-c3ccc4c(c3)N([C@H]3C[C@@H](N5CCCCC5)C3)C(=O)C43CCN(C(=O)[C@H]4[C@@H]5C[C@H]4CN(C(=O)C4CCN(c6ccc(C7CCC(=O)NC7=O)cn6)CC4)C5)CC3)nc(NC3CC3)c21 (stereo partly shown)"
value_reported = "50 to 70%"

[[record]]
compound = "CC(C)n1cnc2cc(-c3ccc4c(c3)N([C@H]3C[C@@H](N5CCCCC5)C3)C(=O)C43CCN(C(=O)C4CC5CCC4N(C(=O)C4CCN(c6ccc(C7CCC(=O)NC7=O)cn6)CC4)C5)CC3)nc(NC3CC3)c21 (mixture of isomers)"
value_reported = "50 to 70%"


Look up Dmax: `CC(C)n1cnc2cc(-c3ccc4c(c3)N([C@H]3C[C@@H](N5CCCCC5)C3)C(=O)C43CCN(C(=O)C4CCN(C(=O)[C@H]5CC[C@H](C(=O)N6CCc7cc(N8CCC(=O)NC8=O)ccc7C6)CC5)CC4)CC3)nc(Nc3ccccc3F)c21`
50 to 70%

Please report the recorded Dmax for CC(C)n1cnc2cc(-c3ccc4c(c3)N([C@H]3C[C@@H](N5CCCCC5)C3)C(=O)C43CCN(C(=O)[C@@H]4C[C@H]5CC[C@@H](C4)N5C(=O)C4CCN(c5ccc(C6CCC(=O)NC6=O)cc5)CC4)CC3)nc(NC3CC3)c21 (mixture of isomers) .
70 to 85%

GET /values?readout=Dmax&item= CC(C)n1cnc2cc(-c3ccc4c(c3)N([C@H]3C[C@@H](N5CCCCC5)C3)C(=O)C43CCN(C(=O)c4ccc(C(=O)NC5CCN(c6ccc7c(c6)C(=O)N(C6CCC(=O)NC6=O)C7=O)CC5)cc4)CC3)nc(NC3CC3)c21 (mixture of isomers)
50 to 70%

Name the recorded Dmax for CC(C)n1cnc2cc(-c3ccc4c(c3)N([C@H]3C[C@@H](N5CCCCC5)C3)C(=O)C43CCN(C(=O)[C@@H]4CCN(C(=O)[C@H]5CC[C@H](N(C)c6ccc(C7CCC(=O)NC7=O)cn6)CC5)C4)CC3)nc(Nc3ccccc3F)c21 (mixture of isomers) .
> 85%

What value of Dmax has been recorded for this entry: CC(C)n1cnc2cc(-c3ccc4c(c3)N([C@H]3C[C@@H](N5CCCCC5)C3)C(=O)C43CCN(C(=O)C4CCN(C(=O)[C@H]5CC[C@H](N(C)c6cccc7c6C(=O)N(C6CCC(=O)NC6=O)C7=O)CC5)CC4)CC3)nc(NC3CC3)c21 (mixture of isomers)
50 to 70%

// Dmax lookup, key: CC(C(=O)N1CCN(C(=O)C2CCN(c3cc(C4CCC(=O)NC4=O)ccn3)CC2)CC1)N1CCC2(CC1)C(=O)N([C@H]1C[C@@H](N3CCCCC3)C1)c1cc(-c3cc4ncn(C(C)C)c4c(NC4CC4)n3)ccc12 (stereo partly shown)
70 to 85%

For Cc1cc(F)c(Nc2nc(-c3ccc4c(c3)N([C@H]3C[C@@H](N5CCCCC5)C3)C(=O)C43CCN(C(=O)C4CCN(C(=O)C5CCN(c6ccc(C7CCC(=O)NC7=O)cn6)CC5)CC4)CC3)cc3ncn(C(C)C)c23)cc1C(=O)NC(C)C (mixture of isomers) , what is its reported Dmax?
70 to 85%

What value of Dmax has been reported for the following compound? CC(C)n1cnc2cc(-c3ccc4c(c3)N([C@H]3C[C@@H](N5CCCCC5)C3)C(=O)C43CCN(C(=O)C4(C)CCN(C(=O)[C@H]5CC[C@H](Oc6ccc(C7CCC(=O)NC7=O)cn6)CC5)CC4)CC3)nc(Nc3ccccc3F)c21 (mixture of isomers)
> 85%

Which Dmax is reported for this compound? CC(C)n1cnc2cc(-c3ccc4c(c3)N([C@H]3C[C@@H](N5CCCCC5)C3)C(=O)C43CCN(C(=O)C4(C)CCN(C(=O)C5CCN(c6ccc(C7CCC(=O)NC7=O)cn6)CC5)CC4)CC3)nc(N3CCCC3)c21 (stereo partly shown)
50 to 70%

----------
# TGT: HPK1 (Homo sapiens, UniProt Q92918)
# Construct: A HiBiT tag was introduced by CRISPR on the N terminus of HPK1 in Jurkat cells; host or cells: Jurkat cells (ATCC TIB-152), monoclonal line with CRISPR knock-in of HiBiT at the endogenous HPK1 locus
# EXPERIMENTAL PROTOCOL: HPK1 Cellular HiBit Degradation Assay
# Type: cell-based
# CONDITION SUMMARY: Jurkat, HiBiT HPK1 Jurkat cells, 24 hrs; maximum degradation vs DMSO vehicle control; read-out: Dmax Category
List of Dmax values.

Fill in: Dmax of CC(C)n1cnc2cc(-c3ccc4c(c3)N([C@H]3C[C@@H](N5CCCCC5)C3)C(=O)C43CCN(C(=O)C4CC45CCN(C(=O)C4CCN(c6ccc(C7CCC(=O)NC7=O)cn6)CC4)C5)CC3)nc(NC3CC3)c21 (mixture of isomers) [Example 303] is ___
50 to 70%

Every entry's value here was drawn from patent US12091426B2.
